Source of measurements: the supplement of paper PMC11908140

B1: library; numbered along this chain (parent)
chain: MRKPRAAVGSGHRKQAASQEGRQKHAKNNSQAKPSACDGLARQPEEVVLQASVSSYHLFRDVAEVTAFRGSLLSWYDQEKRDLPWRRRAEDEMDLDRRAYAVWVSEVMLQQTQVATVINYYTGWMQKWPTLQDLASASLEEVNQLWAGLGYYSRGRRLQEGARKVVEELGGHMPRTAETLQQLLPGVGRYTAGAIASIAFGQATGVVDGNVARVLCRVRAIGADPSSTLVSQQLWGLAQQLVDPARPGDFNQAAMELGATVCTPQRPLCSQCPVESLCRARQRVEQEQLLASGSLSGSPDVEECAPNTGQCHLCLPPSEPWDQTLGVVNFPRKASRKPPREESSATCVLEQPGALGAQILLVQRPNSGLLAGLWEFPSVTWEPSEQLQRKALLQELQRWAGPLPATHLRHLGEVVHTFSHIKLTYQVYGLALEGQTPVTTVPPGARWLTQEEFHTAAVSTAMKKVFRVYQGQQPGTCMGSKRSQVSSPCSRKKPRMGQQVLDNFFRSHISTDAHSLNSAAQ

- Variants of: B1
- assayDetails: 8OG:A repair function score (normalized; synonymous = 0, nonsense = -1) (normalized log-likelihood score); higher = more repair activity (WT-like);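 further: cells sorted at 72 h after reporter transfection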
- testParameters: with 8OG:A DNA repair reporter (GFP) in HEK-293 MUTYH KO cells
Entry flag: Y if 8OG:A repair function score reaches -0.3; N if it does not.

Take a look at these entries with their results.
{"variant": "L289Y", "label": "Y"}
{"variant": "T346G", "label": "N"}

## Input 8OG:A repair function score >= -0.3 for `G356F` ?
## Output Y

## Input Repeat for the following variant: `V47K`
## Output Y

## Input Repeat for the following variant: `K464H`
## Output N

## Input Repeat for the following variant: `A280N`
## Output N

## Input Repeat for the following variant: `I198Q`
## Output N

## Input Repeat for the following variant: `V206L`
## Output N

## Input Repeat for the following variant: `T476W`
## Output Y

## Input Repeat for the following variant: `V500S`
## Output Y

## Input Repeat for the following variant: `L355F`
## Output Y

## Input Repeat for the following variant: `A254K`
## Output N

## Input Repeat for the following variant: `D502L`
## Output Y
